These entries and their values trace back to ChEMBL document CHEMBL1156325.

- assay-remarks: Metabolic stability in mouse liver microsomes at 1 umol/L after 20 mins by HPLC assessed per mg of protein
- Type: ADME, Microsome
- measurement-parameters: read-out: Stability
endpoint: remaining at 20 min, 1 µM (%)

Guide cases for remaining at 20 min, 1 µM, answers given:
- CCOc1ccc(C(=O)NCCNC(=O)c2nn(-c3ccccc3)cc2C)cc1: 14
- CCOc1ccc(C(=O)NCCNC(=O)c2cn(Cc3ccccc3)nc2C(F)(F)F)cc1: 7.5
- CCOc1cccc(C(=O)NCCNC(=O)c2cn(-c3ccccc3)nc2C(F)(F)F)c1: 19
- CCOc1ccc(C(=O)NCCNC(=O)c2cn(-c3ccccc3)nc2C)cc1: 2.5

I: O=C(NCCNC(=O)c1cn(-c2ccccc2)nc1C(F)(F)F)c1ccc(OCC(F)(F)F)nc1
II: CCOc1ccc(C(=O)NCCNC(=O)c2cn(-c3ccc(OCC)cc3)nc2C(F)(F)F)cc1
III: O=C(NCCNC(=O)c1cn(-c2ccccc2)nc1C(F)(F)F)c1ccc(-n2cccn2)cc1
Would you mind ranking these compounds by ascending remaining at 20 min, 1 µM? Lab note: final answer is the ordered label list.
I, III, II
(I: 0%, III: 3.5%, II: 14%)

a: CCOc1ccc(C(=O)NCCNC(=O)c2cn(-c3ccccn3)nc2C(F)(F)F)cc1
b: CCOc1ccc(C(=O)NCCNC(=O)c2cn(-c3ccccc3O)nc2C(F)(F)F)cc1
c: CCOc1ccc(C(=O)NCCNC(=O)c2cn(-c3ccccc3)nc2C(F)(F)F)cn1
d: CCOc1cc(C)c(C(=O)CCC(=O)Nc2nc(-c3ccccc3)c(Cc3ccccc3)s2)cc1OCC
Would you mind ranking these compounds by ascending remaining at 20 min, 1 µM? Lab note: final answer is the ordered label list.
b, c, a, d
(b: 0.5%, c: 2.5%, a: 7%, d: 16%)

A: CCOc1ccc(C(=O)NCCNC(=O)c2cn(C3CCCCC3)nc2C(F)(F)F)cc1
B: O=C(NCCNC(=O)c1cn(-c2ccccc2)nc1C(F)(F)F)c1ccc(Cl)cn1
C: O=C(NCCNC(=O)c1cn(-c2ccccc2)nc1C(F)(F)F)c1ccc(Cl)nc1
D: CCOc1ccc(C(=O)NCCNC(=O)c2cn(-c3ccc(Cl)cc3)nc2C(F)(F)F)cc1
Would you mind ranking these compounds by ascending remaining at 20 min, 1 µM? Lab note: final answer is the ordered label list.
C, B, D, A

###

- system-name: Diacylglycerol O-acyltransferase 1 (Homo sapiens)
- Sequence (O75907 whole entry): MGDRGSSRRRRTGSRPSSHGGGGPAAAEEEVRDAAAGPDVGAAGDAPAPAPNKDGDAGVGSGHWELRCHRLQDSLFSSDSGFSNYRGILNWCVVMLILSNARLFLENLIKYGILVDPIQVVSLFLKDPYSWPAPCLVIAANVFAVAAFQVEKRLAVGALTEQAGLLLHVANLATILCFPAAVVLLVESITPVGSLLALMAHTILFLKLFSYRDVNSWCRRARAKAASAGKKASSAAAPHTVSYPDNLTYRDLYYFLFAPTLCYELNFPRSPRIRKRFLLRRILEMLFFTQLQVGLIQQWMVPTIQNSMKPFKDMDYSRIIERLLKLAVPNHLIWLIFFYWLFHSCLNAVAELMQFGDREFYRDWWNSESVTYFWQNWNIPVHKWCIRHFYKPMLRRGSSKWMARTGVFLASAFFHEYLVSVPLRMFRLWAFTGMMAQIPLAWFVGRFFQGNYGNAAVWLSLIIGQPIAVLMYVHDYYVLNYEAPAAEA
endpoint: IC50

Guide cases for IC50, answers given:
• CCOc1ccc(C(=O)N[C@H](CO)CNC(=O)c2cn(-c3ccccc3)nc2C(F)(F)F)cc1 = > 10 µM
• CCOc1ccc(C(=O)NC[C@H](CO)NC(=O)c2cn(-c3ccccc3)nc2C(F)(F)F)cc1 = > 10 µM

Please look at the following compound next.
Can you share its IC50? I mean this compound: CCOc1ccc(C(=O)N[C@@H](CO)CNC(=O)c2cn(-c3ccccc3)nc2C(F)(F)F)cc1
> 10 µM

###

- system-name: UniProt Q9Z2A7
- Sequence (Q9Z2A7 whole entry): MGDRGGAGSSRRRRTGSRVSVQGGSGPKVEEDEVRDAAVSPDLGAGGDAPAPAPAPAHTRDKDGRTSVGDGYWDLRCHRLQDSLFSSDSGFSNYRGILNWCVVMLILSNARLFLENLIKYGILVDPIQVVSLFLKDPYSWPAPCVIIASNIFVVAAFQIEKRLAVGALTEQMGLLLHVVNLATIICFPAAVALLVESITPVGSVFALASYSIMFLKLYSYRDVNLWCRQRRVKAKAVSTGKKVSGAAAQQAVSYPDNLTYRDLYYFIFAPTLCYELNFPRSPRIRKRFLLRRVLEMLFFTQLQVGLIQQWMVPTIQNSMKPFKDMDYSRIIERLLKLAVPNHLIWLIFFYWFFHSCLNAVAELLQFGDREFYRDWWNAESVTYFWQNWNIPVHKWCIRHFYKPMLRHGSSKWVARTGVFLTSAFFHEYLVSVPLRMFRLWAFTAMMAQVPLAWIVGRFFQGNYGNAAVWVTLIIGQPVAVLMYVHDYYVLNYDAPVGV
- assay-remarks: Inhibition of DGAT1 in mouse C2C12 cells assessed as suppression of [14C]triglyceride accumulation pretreated for 20 mins before [14C]oleic acid challenge measured after 20 mins by TLC analysis
pIC50: −log10 of the molar value.
endpoint: pIC50

Guide cases for pIC50, answers given:
* CCOc1ccc(C(=O)NCCNC(=O)c2cn(-c3cccc(OCC)c3)nc2C(F)(F)F)cc1 | 6.22
* O=C(NCCNC(=O)c1cn(-c2ccccc2)nc1C(F)(F)F)c1ccc(OCC(F)(F)F)nc1 | 7.36
* O=C(NCCNC(=O)c1cn(-c2ccccc2)nc1C(F)(F)F)c1ccc(Cl)cn1 | 5.92
* CCOc1ccc(C(=O)NCCNC(=O)c2cn(-c3ccccc3)nc2C(F)(F)F)cc1 | 7.11
* CCOc1ccc(C(=O)NCCNC(=O)c2cn(-c3ccc(OCC)cc3)nc2C(F)(F)F)cc1 | 6.42

a: CCOc1ccc(C(=O)NCCNC(=O)c2cn(-c3ccc(Cl)cc3)nc2C(F)(F)F)cc1
b: CCOc1ccc(C(=O)NCCNC(=O)c2cn(-c3ccccn3)nc2C(F)(F)F)cc1
c: O=C(NCCNC(=O)c1cn(-c2ccccc2)nc1C(F)(F)F)c1ccc(-n2cccn2)cc1
d: CCOc1cccc(C(=O)NCCNC(=O)c2cn(-c3ccccc3)nc2C(F)(F)F)c1
e: CCOc1ccc(C(=O)NCCNC(=O)c2cn(C3CCCCC3)nc2C(F)(F)F)cc1
Kindly order the items shown according to pIC50, from the highest value down. Lab note: final answer is the ordered label list.
b, c, e, a, d

A: O=C(NCCNC(=O)c1cn(-c2ccccc2)nc1C(F)(F)F)c1ccc(Cl)nc1
B: CCOc1ccc(C(=O)NCCNC(=O)c2cn(-c3ccccc3O)nc2C(F)(F)F)cc1
C: CCOc1ccc(C(=O)NCCNC(=O)c2cn(-c3ccccc3)nc2C(F)(F)F)cn1
Kindly order the items shown according to pIC50, from the highest value down. Lab note: final answer is the ordered label list.
C, A, B
(C: 7.06, A: 6.43, B: 6.21)

a: CCOc1ccc(C(=O)NCCNC(=O)c2nn(-c3ccccc3)cc2C)cc1
b: CCOc1ccc(C(=O)NCCNC(=O)c2cn(-c3cccnc3)nc2C(F)(F)F)cc1
c: CCOc1ccc(C(=O)NCCNC(=O)c2cn(-c3ccccc3)nc2C)cc1
Kindly order the items shown according to pIC50, from the highest value down. Lab note: final answer is the ordered label list.
c, a, b
